Target: mouse GnRH receptor (Mus musculus, UniProt Q01776)
Construct: expressed in transfected cells; host or cells: 293 cells
Sequence (Q01776 whole entry): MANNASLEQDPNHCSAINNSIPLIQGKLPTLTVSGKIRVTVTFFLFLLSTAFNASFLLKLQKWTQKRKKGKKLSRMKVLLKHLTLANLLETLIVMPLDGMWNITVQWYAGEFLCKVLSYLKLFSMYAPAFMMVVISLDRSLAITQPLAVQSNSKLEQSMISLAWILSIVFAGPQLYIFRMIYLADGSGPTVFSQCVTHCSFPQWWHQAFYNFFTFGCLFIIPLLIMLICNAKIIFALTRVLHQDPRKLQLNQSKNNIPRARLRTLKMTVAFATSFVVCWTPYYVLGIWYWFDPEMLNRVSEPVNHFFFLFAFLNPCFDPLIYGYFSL
Experiment: Radioligand binding, 125I-GnRH-A, 293 cells expressing mouse GnRH receptors
Conditions: 1 h, substrate remaining; 10 uM compound; closer to zero = closer to 100% inhibition; read-out: S%R 10 uM mGnRHR
Protocol: All compounds were diluted in 1% DMSO (final assay concentration) in binding assay buffer. […] Reactions were terminated by rapid filtration onto 96-well Packard GF/C filters soaked in 0.1% polyethyleneimine. Filters were washed three times with PBS buffer, dried and counted on a Packard Topcount by liquid scintillation counting. […] The reaction mixture was vortexed and incubated for 1 min at room temperature. […] Fractions were assessed for biological activity by radioligand binding.
compounds and their reported remaining activity at 10 µM
Number first, unit second.

# annotated cases, reported remaining activity at 10 µM shown
# compound, property_name, meas_value
measured = [
    ("Cc1cc2c(cc1Cc1ccc(C(=O)NC(C)(C)CO)o1)C(C)(C)CCC2(C)C", "remaining activity at 10 µM", "10%"),
    ("CC(=O)NCCNC(=O)c1ccc(Cc2cc3c(cc2C)C(C)(C)CCC3(C)C)o1", "remaining activity at 10 µM", "20%"),
    ("Cc1cc2c(cc1Cc1ccc(C(=O)NCCc3c[nH]cn3)o1)C(C)(C)CCC2(C)C", "remaining activity at 10 µM", "9%"),
    ("Cc1cc2c(cc1Cc1ccc(C(=O)NC3CCCCC3Nc3nccc(NCC4CCCO4)n3)o1)C(C)(C)CCC2(C)C (stereo not shown)", "remaining activity at 10 µM", "30%"),
    ("COc1cc2c(cc1OC)CN(C(=O)c1ccc(Cc3cc4c(cc3C)C(C)(C)CCC4(C)C)o1)CC2", "remaining activity at 10 µM", "55%"),
    ("Cc1cc2c(cc1Cc1ccc(C(=O)NC(CO)CC(C)C)o1)C(C)(C)CCC2(C)C (stereo not shown)", "remaining activity at 10 µM", "3%"),
]

Lab note: next compound to report on.
I have this compound here, Cc1cc2c(cc1Cc1ccc(C(=O)N3CCCCC3C(=O)NC(c3ccccc3)c3ccccc3)o1)C(C)(C)CCC2(C)C (stereo not shown) , and I need its recorded remaining activity at 10 µM.
57%

* * *

compounds and their reported Fp.o.
Experiment: Pharmacokinetic studies / bioavailability in rats
Assay type: in vivo, rat
Settings: rat female; 5 mg/ml solution in 10% DMSO 10% cremophor 80% saline

# compound, Fp.o.
records = [
    ("COc1cc(NS(C)(=O)=O)c(NC(=O)c2ccc(Cc3cc4c(cc3C)C(C)(C)CCC4(C)C)o2)c(OC)c1", "2% (10 mg/kg)^10"),
    ("COc1cc(OC)c(NC(=O)c2ccc(Cc3c(OC)cc(C)c(Cl)c3C)o2)c(OC)c1", "72% (10 mg/kg)^10"),
    ("COc1cc2c(cc1Cc1ccc(C(=O)NCc3cccc(CNc4ccnc(NC[C@H]5CCCO5)n4)c3)o1)C(C)(C)CCC2(C)C (stereo in doubt)", "10% (10 mg/kg)^10"),
]

I have this compound here, `Cc1ccc(C(C)(C)C)cc1Cc1ccc(C(=O)Nc2ccc3[nH]ccc3c2)o1` , and I need its recorded Fp.o..
41% (10 mg/kg)^10

I have this compound here, `COc1cc(OC)c(NC(=O)c2ccc(Cc3cc4c(cc3C)CCCC4(C)C)o2)c(OC)c1` , and I need its recorded Fp.o..
37% (10 mg/kg)^10

I have this compound here, `COc1cccc(OC)c1NC(=O)c1ccc(Cc2c(C)c(C)cc(C)c2C)o1` , and I need its recorded Fp.o..
24% (10 mg/kg)^10

I have this compound here, `COc1cc2c(cc1Cc1ccc(C(=O)Nc3c(OC)cc(OC)c(C#N)c3OC)o1)C(C)(C)CCC2(C)C` , and I need its recorded Fp.o..
16% (10 mg/kg)^10

I have this compound here, `COc1cccc(OC)c1NC(=O)c1ccc(Cc2c(C)c(C)c(Br)c(C)c2C)o1` , and I need its recorded Fp.o..
34% (10 mg/kg)^10

I have this compound here, `COc1cccc(OC)c1NC(=O)c1ccc(Cc2c(C)cc(C)c(Br)c2C)o1` , and I need its recorded Fp.o..
59% (10 mg/kg)^10
